assay.name: in vitro
condition.parameters: mouse, plasma
fraction unbound at 5 h: recorded values
Give your answer as a number; write no unit.

Requested field: fraction unbound at 5 h. Item: CO[C@H]1CC[C@]2(CC1)Cc1ccc(OCC(C)C)cc1C21N=C(C)C(N)=N1 (stereo not given in full)
0.349

Requested field: fraction unbound at 5 h. Item: O=P(c1ccccc1)(c1ccccc1)N(Cc1ccccn1)Cc1ccccn1
0.0968

Requested field: fraction unbound at 5 h. Item: NC(=O)[C@@H](CCC(F)(F)F)N(Cc1ccc(-c2ncon2)cc1F)S(=O)(=O)c1ccc(Cl)cc1
0.0149

Requested field: fraction unbound at 5 h. Item: CC1(CCCc2cc(=O)oc3[nH]c(=O)[nH]c(=O)c23)CC1
0.0268

Requested field: fraction unbound at 5 h. Item: COc1ccc(Cl)cc1C(=O)NCCc1ccc(S(=O)(=O)NC(=O)NC2CCCCC2)cc1 [GLYBURIDE]
0.0027

----------
assay.name: in vitro
condition.parameters: human, plasma, PPB
Decide using fraction unbound at 5 h alone. Strictly below 0.08: Satisfied. Equal to or above 0.08: Not satisfied.

Previously resolved entries follow.
[
  {
    "smiles.representation": "O=C(NC1CC1)c1cc(-c2cccs2)on1",
    "assigned.class": "Satisfied"
  },
  {
    "smiles.representation": "Nc1nc(OCC2CCC2)nc2c1ncn2[C@@H]1O[C@H](CF)[C@@H](O)[C@H]1O",
    "assigned.class": "Not satisfied"
  },
  {
    "smiles.representation": "COc1cc2ncc(C(N)=O)c(Nc3ccc(Cl)c(Cl)c3)c2cc1N1CCN(C)CC1",
    "assigned.class": "Satisfied"
  },
  {
    "smiles.representation": "Cc1ccc(NC(=O)c2ccnc(N3CCOCC3)c2)cc1NC(=O)c1ccc(OCc2ccccn2)cc1",
    "assigned.class": "Satisfied"
  },
  {
    "smiles.representation": "Cc1ccc2c(c1)c(-c1cc(C)nc3ccccc13)c(C)n2CC(=O)O",
    "assigned.class": "Satisfied"
  }
]

State whether 0.08 exceeds fraction unbound at 5 h recorded for CN[C@@H](C)C(=O)N[C@H](C(=O)N[C@H]1CCCN(CCc2ccc([N+](=O)[O-])cc2)C1)C(C)(C)C .
Not satisfied

State whether 0.08 exceeds fraction unbound at 5 h recorded for N#Cc1ccc2ccc(=O)n(CCN3CC[C@H](NCc4ccc5c(n4)NC(=O)CO5)[C@H](O)C3)c2c1 .
Not satisfied

State whether 0.08 exceeds fraction unbound at 5 h recorded for CCOC(=O)[C@H](CCc1ccccc1)N[C@H]1CCc2ccccc2N(CC(=O)O)C1=O .
Satisfied

State whether 0.08 exceeds fraction unbound at 5 h recorded for CC(=O)Nc1ccc2c(c1)c(-c1cc(NC3CC3)n3ncc(C#N)c3n1)cn2CCO .
Satisfied

----------
assay.name: physchem
condition.parameters: pH 7.4 buffer
param class (str): category from solubility thermodynamic; see ranges bottom (below 20 µM), middle (20 µM to below 200 µM), top (200 µM or more)

[
  {
    "compound": "COc1cc2ncnc(Nc3ccc(OCc4ccccn4)c(C)c3)c2cc1OC",
    "assigned.class": "bottom"
  },
  {
    "compound": "CC(C)c1ccc2[nH]c3c(c2c1)CN(C(=O)[C@@H]1CCCC[C@H]1C(=O)NC1(C#N)CC1)CC3",
    "assigned.class": "middle"
  },
  {
    "compound": "O=C(Nc1ncc(F)s1)[C@H](CC1CCOCC1)c1ccc(S(=O)(=O)C2CC2)cc1",
    "assigned.class": "top"
  },
  {
    "compound": "Cc1c(-c2ccc(O)cc2)n(Cc2ccc(OCCN3CCCCCC3)cc2)c2ccc(O)cc12",
    "assigned.class": "bottom"
  },
  {
    "compound": "COc1ccc(-c2[nH]nc3c2C(=O)c2ccccc2-3)cc1",
    "assigned.class": "bottom"
  },
  {
    "compound": "COc1cc(N2CCN(C(C)=O)CC2)ccc1Nc1ncc(Cl)c(-c2cnc3c(N)cccn23)n1",
    "assigned.class": "bottom"
  },
  {
    "compound": "Cc1cc(NC(=O)c2ccccc2)n[nH]1",
    "assigned.class": "top"
  },
  {
    "compound": "COc1cc2c(Nc3c(Cl)ccc4c3OCO4)ncnc2cc1OCCCN1CCOCC1",
    "assigned.class": "middle"
  }
]

Sort Oc1cc(-c2ccccc2)nc2c(O)cccc12 into one of the categories.
middle

Sort COc1cc(Nc2ncnc3[nH]nc(OCCN4CCC(O)CC4)c23)ccc1OCc1cccc(F)c1 into one of the categories.
bottom

Sort O=c1[nH]c(-c2ccc([N+](=O)[O-])cc2)nc2ccccc12 into one of the categories.
bottom

----------
assay.name: physchem
condition.parameters: pH 7.4 buffer
solubility thermodynamic vs 20 µM: at or above is yes (1), below is no (0).

[
  {
    "molecule": "Oc1cc(OCc2ccccc2)ccn1",
    "assigned.class": "yes (1)"
  }
]

Given the entry CNc1cccc(CCCc2ccc(C[C@H](NC(=O)c3c(Cl)cccc3Cl)C(=O)O)cc2)n1 , answer whether its solubility thermodynamic meets or surpasses 20 µM.
yes (1)

Given the entry O=C(Nc1cccc(O)c1)c1ccc(OCCCN2CCCC2)cc1OCc1ccc(F)cc1 , answer whether its solubility thermodynamic meets or surpasses 20 µM.
no (0)

Given the entry O=C(NC1CCCCC1)c1cccnc1Sc1ccccc1 , answer whether its solubility thermodynamic meets or surpasses 20 µM.
yes (1)

Given the entry CN(C)CC(O)COc1ccc(Nc2ncc(Cl)c(Nc3ccccc3)n2)cc1 (configuration not stated) , answer whether its solubility thermodynamic meets or surpasses 20 µM.
yes (1)

Given the entry CCc1ccc(NC(=O)c2ccc3cc(C(=N)N)ccc3c2)cc1 , answer whether its solubility thermodynamic meets or surpasses 20 µM.
no (0)

Given the entry CCOC(=O)Nc1ccc2c(c1)N(C(=O)CCN1CCOCC1)c1ccccc1S2 , answer whether its solubility thermodynamic meets or surpasses 20 µM.
yes (1)

Given the entry C[C@@H]1C[C@H]2[C@@H]3CCC4=CC(=O)C=C[C@]4(C)[C@@]3(F)[C@@H](O)C[C@]2(C)[C@@]1(O)C(=O)CO , answer whether its solubility thermodynamic meets or surpasses 20 µM.
yes (1)

Given the entry Cc1nc(C)c(-c2ccc([C@H]3CC[C@@H](CC(=O)O)CC3)c(F)c2)nc1C(N)=O , answer whether its solubility thermodynamic meets or surpasses 20 µM.
yes (1)

Given the entry CCn1c2ccccc2c2cc(NC(=O)CN(C)C)ccc21 , answer whether its solubility thermodynamic meets or surpasses 20 µM.
yes (1)

Given the entry COc1ccccc1Nc1cc(Oc2cc(C)c(C)nc2-c2ccccn2)ccn1 , answer whether its solubility thermodynamic meets or surpasses 20 µM.
yes (1)

Given the entry Cc1cc(C)cc(-c2[nH]c3sc(C(C)(C)C(=O)N4C5CCC4CC5)cc3c2[C@H](C)CNC(=O)N2CCC(c3ccncc3)CC2)c1 , answer whether its solubility thermodynamic meets or surpasses 20 µM.
no (0)

Given the entry CC1(C)C(=O)N(c2ccc(SC(F)(F)F)cc2)C(=O)N1Cc1ccncc1 , answer whether its solubility thermodynamic meets or surpasses 20 µM.
yes (1)

Given the entry COc1cc2ncnc(Oc3ccc(CC(=O)Nc4ccc(N(C)C)cn4)cc3)c2cc1OC , answer whether its solubility thermodynamic meets or surpasses 20 µM.
no (0)

Given the entry C[C@@H](Oc1cccc2ncnc(Nc3ccc4c(cnn4Cc4cscn4)c3)c12)C(=O)N(C)C , answer whether its solubility thermodynamic meets or surpasses 20 µM.
yes (1)

----------
assay.name: in vitro
condition.parameters: human, microsomes
microsomal CLint: recorded values
Use µL/min/mg as the unit, but write only the number.

Please review the entries below; each comes with its answer.
[
  {
    "smiles.representation": "CN(C)c1nc(NC[C@H]2CC[C@H](CNS(=O)(=O)c3ccc(Br)cc3OC(F)(F)F)CC2)nc2ccccc12",
    "scale.unit": "µL/min/mg",
    "microsomal CLint": 117
  },
  {
    "smiles.representation": "COc1ccc(N(C(=O)Oc2c(C)cccc2C)c2ccnc(Nc3ccc(N4CCN(C)CC4)cc3)n2)c(OC)c1",
    "scale.unit": "µL/min/mg",
    "microsomal CLint": 27.5
  },
  {
    "smiles.representation": "O=C(NCC12CC3CC(CC(C3)C1)C2)c1cc(CN2CC3CNCC(C2)O3)ccc1Cl",
    "scale.unit": "µL/min/mg",
    "microsomal CLint": 15
  },
  {
    "smiles.representation": "Cc1nc2ccccn2c1-c1ccnc(N)n1",
    "scale.unit": "µL/min/mg",
    "microsomal CLint": 50.1
  }
]

Turning now to a further compound:
Requested field: microsomal CLint. Item: CN(CC(=O)N(Cc1ccc(C2CCCCC2)cc1)c1ccc(C(=O)O)c(O)c1)S(=O)(=O)c1c(F)c(F)c(F)c(F)c1F
129

Sourced from ChEMBL document CHEMBL3301361
